System: Cytomegalovirus
protocol text: Inhibition of growth of human cytomegalovirus (HCMV) was determined by plaque reduction assay in human lung fibroblast cell line
Format: functional, organism-based
measurement context: Human betaherpesvirus 5, Fibroblast
Each item that follows carries a reported IC50.

>  <molecule smiles>
Nc1ccn(COC(CO)CO)c(=S)n1

>  <measured on>
Cytomegalovirus

>  <IC50>
> 100 µM

$$$$
>  <molecule smiles>
CNc1ccn(COC(CO)CO)c(=O)n1

>  <measured on>
Cytomegalovirus

>  <IC50>
> 100 µM

$$$$
>  <molecule smiles>
COC(=O)CC(CC(=O)OC)OC[n+]1ccc(N)nc1

>  <measured on>
Cytomegalovirus

>  <IC50>
> 100 µM

$$$$
>  <molecule smiles>
Cc1cn(COC(CO)CO)c(=O)nc1N

>  <measured on>
Cytomegalovirus

>  <IC50>
> 100 µM

$$$$
>  <molecule smiles>
Nc1nc(=O)ccn1COC(CO)CO

>  <measured on>
Cytomegalovirus

>  <IC50>
> 100 µM

$$$$
>  <molecule smiles>
Nc1nc(=O)n(COC(CO)CO)cc1I

>  <measured on>
Cytomegalovirus

>  <IC50>
> 100 µM

$$$$
>  <molecule smiles>
Nc1ncn(COC(CO)CO)c(=O)n1

>  <measured on>
Cytomegalovirus

>  <IC50>
100 µM

$$$$
>  <molecule smiles>
Cc1cn(COC(CO)CO)c(=O)[nH]c1=O

>  <measured on>
Cytomegalovirus

>  <IC50>
> 250 µM

$$$$
>  <molecule smiles>
Nc1nc(=O)n(COC(CO)CO)cc1F

>  <measured on>
Cytomegalovirus

>  <IC50>
100 µM

$$$$
>  <molecule smiles>
O=c1[nH]c(=O)n(COC(CO)CO)cc1Br

>  <measured on>
Cytomegalovirus

>  <IC50>
> 100 µM

$$$$
>  <molecule smiles>
CN(C)c1ccn(COC(CO)CO)c(=O)n1

>  <measured on>
Cytomegalovirus

>  <IC50>
> 100 µM

$$$$
>  <molecule smiles>
O=c1ccn(COC(CO)CO)c(=O)[nH]1

>  <measured on>
Cytomegalovirus

>  <IC50>
> 250 µM

$$$$
>  <molecule smiles>
Nc1nc2c(ncn2COC(CO)CO)c(=O)[nH]1

>  <measured on>
Cytomegalovirus

>  <IC50>
3.4 µM

$$$$
